test system: UACC-257
A collection of compounds and their measured CC50
Supply the numeric figure in µM, leaving out any unit text.

compound	CC50 / µM
C=C1C(=O)O[C@H]2[C@H]1CC/C(COC(=O)CCC(=O)NCCCCCCCCNC(=O)CCC(=O)OC/C1=C/CC[C@@]3(C)O[C@H]3[C@H]3OC(=O)C(=C)[C@@H]3CC1)=C\CC[C@@]1(C)O[C@@H]21 [JVM 2-87]	16

Next item in the queue.
Value (CC50, UACC-257) for record C=C1C(=O)O[C@H]2[C@H]1CC/C(COC(=O)CCC(=O)NCCCCCCCCCNC(=O)CCC(=O)OC/C1=C/CC[C@@]3(C)O[C@H]3[C@H]3OC(=O)C(=C)[C@@H]3CC1)=C\CC[C@@]1(C)O[C@@H]21 [JVM 2-92] = 32

====

tested on: KM12; test: NCI 60 cell line five dose, Colon Cancer; conditions: read-out: LC50
measuredParameter: CC50 (µM)
Lab book: enter the figure in µM, no units written.

compound	CC50 / µM
C=C1C(=O)O[C@H]2[C@H]1CC/C(COC(=O)NCCCCNC(=O)OC/C1=C/CC[C@@]3(C)O[C@H]3[C@H]3OC(=O)C(=C)[C@@H]3CC1)=C\CC[C@@]1(C)O[C@@H]21 [JVM 3-54]	43.3

Reported CC50 for C=C1C(=O)O[C@H]2[C@H]1CC/C(COC(=O)NCCCCCNC(=O)OC/C1=C/CC[C@@]3(C)O[C@H]3[C@H]3OC(=O)C(=C)[C@@H]3CC1)=C\CC[C@@]1(C)O[C@@H]21 [JVM 2-76] was 54.2

====

tested on: U251; assay: NCI 60 cell line five dose, CNS Cancer; settings: read-out: LC50, molar
measuredParameter: CC50 (µM)
Write it as a number; the unit µM goes unstated.

Noted CC50 for C=C1C(=O)O[C@H]2[C@H]1CC/C(COC(=O)NCCCCCCCCNC(=O)OC/C1=C/CC[C@@]3(C)O[C@H]3[C@H]3OC(=O)C(=C)[C@@H]3CC1)=C\CC[C@@]1(C)O[C@@H]21 [JVM 3-62] , tested on U251: 5.13

====

These compounds were tested on MDA-MB-468; CC50 is the recorded read-out.
Use µM as the unit, but write only the number.

Recorded result, "C=C1C(=O)O[C@H]2[C@H]1CC/C(COC(=O)CCC(=O)NCCCCCCCCCNC(=O)CCC(=O)OC/C1=C/CC[C@@]3(C)O[C@H]3[C@H]3OC(=O)C(=C)[C@@H]3CC1)=C\CC[C@@]1(C)O[C@@H]21" , CC50: 7.04

Briefly, CC50 measured for "C=C1C(=O)O[C@H]2[C@H]1CC/C(COC(=O)CCC(=O)NCCCCCCCCNC(=O)CCC(=O)OC/C1=C/CC[C@@]3(C)O[C@H]3[C@H]3OC(=O)C(=C)[C@@H]3CC1)=C\CC[C@@]1(C)O[C@@H]21" : 21.3

====

test system: OVCAR-8; experiment: NCI 60 cell line five dose, Ovarian Cancer; details: read-out: LC50
measuredParameter: CC50 (µM)
I only need the number, in µM, no unit after it.

compoundSmiles	measuredParameter	unitAbbrev	experimentalValue
C=C1C(=O)O[C@H]2[C@H]1CC/C(COC(=O)NCCCCNC(=O)OC/C1=C/CC[C@@]3(C)O[C@H]3[C@H]3OC(=O)C(=C)[C@@H]3CC1)=C\CC[C@@]1(C)O[C@@H]21	CC50	µM	40.2

Query compound follows.
CC50 recorded for this compound, "C=C1C(=O)O[C@H]2[C@H]1CC/C(COC(=O)NCCCCCNC(=O)OC/C1=C/CC[C@@]3(C)O[C@H]3[C@H]3OC(=O)C(=C)[C@@H]3CC1)=C\CC[C@@]1(C)O[C@@H]21" , is 61

====

System: NCI-H23 | Read-out: CC50
Quick note: number first, unit second.

compoundSmiles	testSystem	CC50
C=C1C(=O)O[C@H]2[C@H]1CC/C(COC(=O)CCC(=O)NCCCCCCCCCNC(=O)CCC(=O)OC/C1=C/CC[C@@]3(C)O[C@H]3[C@H]3OC(=O)C(=C)[C@@H]3CC1)=C\CC[C@@]1(C)O[C@@H]21	NCI-H23	18.5 µM

Read the next record carefully.
Item: "C=C1C(=O)O[C@H]2[C@H]1CC/C(COC(=O)CCC(=O)NCCCCCCCCNC(=O)CCC(=O)OC/C1=C/CC[C@@]3(C)O[C@H]3[C@H]3OC(=O)C(=C)[C@@H]3CC1)=C\CC[C@@]1(C)O[C@@H]21" | CC50: 42.6 µM

====

test system: MDA-MB-468; assay: NCI 60 cell line five dose, Breast Cancer; details: read-out: LC50
measuredParameter: CC50
Remember to put the unit after the number in your answer.

molecule	CC50
C=C1C(=O)O[C@H]2[C@H]1CC/C(COC(=O)NCCCCCNC(=O)OC/C1=C/CC[C@@]3(C)O[C@H]3[C@H]3OC(=O)C(=C)[C@@H]3CC1)=C\CC[C@@]1(C)O[C@@H]21 [JVM 2-76]	24.7 µM

Quick note, CC50 for C=C1C(=O)O[C@H]2[C@H]1CC/C(COC(=O)NCCCCNC(=O)OC/C1=C/CC[C@@]3(C)O[C@H]3[C@H]3OC(=O)C(=C)[C@@H]3CC1)=C\CC[C@@]1(C)O[C@@H]21 [JVM 3-54] landed at 7.76 µM

====

Quick record: CC50, HS 578T.

compoundSmiles	testSystem	experimentalValue
C=C1C(=O)O[C@H]2[C@H]1CC/C(COC(=O)CCC(=O)NCCCCCCCCCNC(=O)CCC(=O)OC/C1=C/CC[C@@]3(C)O[C@H]3[C@H]3OC(=O)C(=C)[C@@H]3CC1)=C\CC[C@@]1(C)O[C@@H]21	HS 578T	> 100 µM

# ---- query compound ----
The recorded CC50 for "C=C1C(=O)O[C@H]2[C@H]1CC/C(COC(=O)CCC(=O)NCCCCCCCCNC(=O)CCC(=O)OC/C1=C/CC[C@@]3(C)O[C@H]3[C@H]3OC(=O)C(=C)[C@@H]3CC1)=C\CC[C@@]1(C)O[C@@H]21" is > 100 µM

====

tested on: HL-60(TB); conditions: read-out: LC50, molar
measuredParameter: CC50

// C=C1C(=O)O[C@H]2[C@H]1CC/C(COC(=O)NCCCCCCCCNC(=O)OC/C1=C/CC[C@@]3(C)O[C@H]3[C@H]3OC(=O)C(=C)[C@@H]3CC1)=C\CC[C@@]1(C)O[C@@H]21 [JVM 3-62] : CC50 value = > 100 µM

====

test system: ACHN; experiment: NCI 60 cell line five dose, Renal Cancer; details: read-out: LC50, molar
measuredParameter: CC50 (µM)
Answer in µM, number only, no unit symbol.

Item: "C=C1C(=O)O[C@H]2[C@H]1CC/C(COC(=O)NCCCCCCCCNC(=O)OC/C1=C/CC[C@@]3(C)O[C@H]3[C@H]3OC(=O)C(=C)[C@@H]3CC1)=C\CC[C@@]1(C)O[C@@H]21" | CC50: 2.85

====

system: OVCAR-4; test: NCI 60 cell line five dose, Ovarian Cancer; details: read-out: LC50, molar
measuredParameter: CC50 (µM)
Only the number, expressed in µM, is required.

The compound listed as C=C1C(=O)O[C@H]2[C@H]1CC/C(COC(=O)NCCCCCCCCNC(=O)OC/C1=C/CC[C@@]3(C)O[C@H]3[C@H]3OC(=O)C(=C)[C@@H]3CC1)=C\CC[C@@]1(C)O[C@@H]21 [JVM 3-62] shows CC50 equal to 4.63

====

test system: COLO 205; assay: NCI 60 cell line five dose, Colon Cancer
measuredParameter: TGI (µM)
A number alone suffices; assume µM.

compound	testSystem	experimentalValue
C=C1C(=O)O[C@H]2[C@H]1CC/C(COC(=O)CCC(=O)NCCCCCCCCNC(=O)CCC(=O)OC/C1=C/CC[C@@]3(C)O[C@H]3[C@H]3OC(=O)C(=C)[C@@H]3CC1)=C\CC[C@@]1(C)O[C@@H]21 [JVM 2-87]	COLO 205	3.14

The recorded TGI for entry C=C1C(=O)O[C@H]2[C@H]1CC/C(COC(=O)NCCCCCNC(=O)OC/C1=C/CC[C@@]3(C)O[C@H]3[C@H]3OC(=O)C(=C)[C@@H]3CC1)=C\CC[C@@]1(C)O[C@@H]21 [JVM 2-76] equals 2.33

Lab note: measured TGI of C=C1C(=O)O[C@H]2[C@H]1CC/C(COC(=O)CCC(=O)NCCCCCCCCCNC(=O)CCC(=O)OC/C1=C/CC[C@@]3(C)O[C@H]3[C@H]3OC(=O)C(=C)[C@@H]3CC1)=C\CC[C@@]1(C)O[C@@H]21 [JVM 2-92] was 3.16

Entry C=C1C(=O)O[C@H]2[C@H]1CC/C(COC(=O)NCCCCNC(=O)OC/C1=C/CC[C@@]3(C)O[C@H]3[C@H]3OC(=O)C(=C)[C@@H]3CC1)=C\CC[C@@]1(C)O[C@@H]21 [JVM 3-54] — recorded TGI = 1.8

Reference source: patent US10118935B2
